Reported growth inhibition values are given for each entry in this list.
# assay.method.text: inhibition of 3D7 malaria parasite growth – strain 3D7 (AID 2306);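 note: 0% = DMSO wells and 100% = chloroquine plus artemisinin control wells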
# run.parameters: P. falciparum 3D7 erythrocytic growth, LDH absorbance, 72 h; at 2 µM; active compounds read high
Field format: number, assumed %, no unit text.

Field: example entries. Status: answers known.
>>> observed_value("CC(Oc1c(C2CCN(CCCCNC(=O)c3ccc(-c4ccc(C#N)cc4)cc3)CC2)ccc2c1CCCC2)C(N)=O (stereo not given)")
100
>>> observed_value("N#Cc1cccc(NC(=O)Nc2cccc(-c3cccc(-c4nc5ccccc5[nH]4)c3)c2)c1")
100

Request: Fill in the blank: the reported growth inhibition of "COc1ccc2nccc([C@@H](O)CN3CCC(NC(=O)Cn4nc(-c5ccc(C(F)(F)F)cc5)ccc4=O)CC3)c2c1" is ____.
Response: 100

Request: Which growth inhibition value belongs to "CCNc1c2ccc(Cl)cc2nc2ccc(OC)cc12" ?
Response: 99

Request: Look at this compound and give its reported growth inhibition. "COc1c(C)cc(I)cc1CNCCCNc1cc(=O)c2ccccc2[nH]1"
Response: 84
